Would you mind telling me the reported Ratio CC50/IC50 of each entry?
- Method Summary: Selectivity index, ratio of CC50 for human HepG2A16 cells to IC50 for multidrug-resistant Plasmodium falciparum FCR-3
- Format: toxicity

Quick one: give me Ratio CC50/IC50 for each item below, same order please.
1. COc1ccccc1N1CCN(CCC(O)c2ccc(F)cc2)CC1 (single isomer, unassigned; (+))
2. O=[N+]([O-])c1ccc(N2CCC(NCCC(O)c3ccc(F)c4ccccc34)CC2)c(C(F)(F)F)c1 (single isomer, unassigned; (-))
3. O=[N+]([O-])c1ccc(N2CCC(NCCC(O)c3ccc(F)c4ccccc34)CC2)c(C(F)(F)F)c1 (single isomer, unassigned; (+))
4. N#Cc1ccc(N2CCC(NCCC(O)c3ccc(F)c4ccccc34)CC2)c(C(F)(F)F)c1 (single isomer, unassigned; (+))
5. N#Cc1ccc(N2CCC(NCCC(O)c3ccc(F)c4ccccc34)CC2)c(C(F)(F)F)c1 (stereo in doubt; (-)-72)

> 11.8
32
420
58
11

Quick one: give me Ratio CC50/IC50 for each item below, same order please.
1. COc1ccccc1N1CCN(CCC(O)c2ccc(F)cc2)CC1 (single isomer, unassigned; (-))
2. OC(CCN1CCN(c2ccccc2C(F)(F)F)CC1)c1ccc(F)c2ccccc12 (single isomer, unassigned; (-))

1: > 219.9; 2: 308
